testedOn: UDP-3-O-acyl-N-acetylglucosamine deacetylase (Aquifex aeolicus (strain VF5), UniProt O67648)
Sequence (O67648 whole entry): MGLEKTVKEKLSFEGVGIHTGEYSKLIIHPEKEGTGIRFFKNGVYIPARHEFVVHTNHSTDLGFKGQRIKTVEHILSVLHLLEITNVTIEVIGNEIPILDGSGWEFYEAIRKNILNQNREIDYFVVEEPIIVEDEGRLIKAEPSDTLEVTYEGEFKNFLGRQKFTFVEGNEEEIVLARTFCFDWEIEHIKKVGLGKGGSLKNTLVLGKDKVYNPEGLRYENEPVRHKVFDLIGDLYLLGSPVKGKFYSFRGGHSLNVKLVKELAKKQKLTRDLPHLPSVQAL
runDescription: Ligand Affinity Measurements
testContext: pH 7; 30 °C
metric: pKd
Note: pKd values are expressed as the negative base-10 logarithm of concentration in M.

CCCCCCCCCCCC(=O)O [dodecanoate]
6.05

Given the compound CCCCCCCCCC(=O)O [decanoate] , what is its reported pKd?
5.15

These data points were gathered from BindingDB's records for doi:10.1016/j.bmc.2007.01.044.
